- System: Huh-7
- experimentSummary: Cytotoxicity against human HuH7 cells assessed as growth inhibition incubated for 48 hrs by Hoechst 33342 staining based assay
- Assay type: cell-based
- conditionParameters: Huh-7, 48 h
reportedProperty: IC50 (µM)
Number in µM, nothing else.

Examples with their reported IC50 follow.
# compound, IC50 / µM
measured = [
    ("O=C(Nc1cccc(-c2cn(CCNc3c4c(nc5ccccc35)CCCC4)nn2)n1)Nc1cccc2c1C1CCCCN1C2=O (racemic)", 18),
    ("O=C(Nc1cc(COCc2cn(CCNc3c4c(nc5ccccc35)CCCC4)nn2)ccn1)Nc1cccc2c1C1CCCCN1C2=O (racemic)", 4),
    ("CN(Cc1ccnc(NC(=O)Nc2cccc3c2C2CCCCN2C3=O)c1)Cc1cn(CCNc2c3c(nc4ccccc24)CCCC3)nn1 (racemic)", 2),
]

Kindly review the next compound as well.
input: I am curious: what IC50 value has been reported for O=C(Nc1cc(-c2cn(CCNc3c4c(nc5ccccc35)CCCC4)nn2)ccn1)Nc1cccc2c1[C@@H]1CCCCN1C2=O ?
output: 2.6
